Parameter: inhibition of growth at 7.5 g/ha. Scope: all listed entries.
Tested on: Echinochloa crus-galli
method_summary: Post-emergence herbicidal activity against Echinochloa crus-galli (barnyard grass) assessed as growth inhibition at 7.5 g.a.i./ha applied at one-leaf stage measured after 15 days
Type: functional
condition_parameters: 360 h, read-out: GI

Field: example entries. Status: answers known.
>  <molecule>
CCOC(=O)C(CC)N1C(=O)C(C)Oc2cc(F)c(N3C(=O)C4=C(CCCC4)C3=O)cc21 (centres undefined)

>  <measured_target>
Echinochloa crus-galli

>  <inhibition of growth at 7.5 g/ha>
0%

$$$$
>  <molecule>
CCOC(=O)C(C)N1C(=O)C(C)Oc2cc(F)c(N3C(=O)C4=C(CCCC4)C3=O)cc21 (centres undefined)

>  <measured_target>
Echinochloa crus-galli

>  <inhibition of growth at 7.5 g/ha>
10%

$$$$
>  <molecule>
COC(=O)C(C)N1C(=O)C(C)Oc2cc(F)c(N3C(=O)C4=C(CCCC4)C3=O)cc21 (centres undefined)

>  <measured_target>
Echinochloa crus-galli

>  <inhibition of growth at 7.5 g/ha>
10%

$$$$

API: the following record is the query input.
Ask | Consider the molecule C#CCN1C(=O)COc2cc(F)c(N3C(=O)C4=C(CCCC4)C3=O)cc21 [FLUMIOXAZIN] and give its recorded inhibition of growth at 7.5 g/ha.
Reply | 50%

* * *

Tested on: Digitaria sanguinalis
method_summary: Pre-emergence herbicidal activity against Digitaria sanguinalis (hairy crabgrass) assessed as growth inhibition at 37.5 g.a.i./ha applied 24 hr after seeds were sown measured after 15 days
Format: functional
condition_parameters: read-out: GI
measurement_name: inhibition of growth at 37.5 g/ha (%)
Just the number please, in %, no unit attached.

>  <compound>
CCOC(=O)C(CC)N1C(=O)C(C)Oc2cc(F)c(N3C(=O)C4=C(CCCC4)C3=O)cc21 (centres undefined)

>  <inhibition of growth at 37.5 g/ha, %>
0

$$$$
>  <compound>
CCOC(=O)C(C)N1C(=O)C(C)Oc2cc(F)c(N3C(=O)C4=C(CCCC4)C3=O)cc21 (centres undefined)

>  <inhibition of growth at 37.5 g/ha, %>
80

$$$$
>  <compound>
COC(=O)C(C)N1C(=O)C(C)Oc2cc(F)c(N3C(=O)C4=C(CCCC4)C3=O)cc21 (centres undefined)

>  <inhibition of growth at 37.5 g/ha, %>
50

$$$$

Ask | Consider the compound C#CCN1C(=O)COc2cc(F)c(N3C(=O)C4=C(CCCC4)C3=O)cc21 and give its recorded inhibition of growth at 37.5 g/ha.
Reply | 80

* * *

System: Brassica rapa subsp. oleifera
method_summary: Phytotoxicity against Brassica rapa subsp. oleifera assessed as growth inhibition at 7.5 to 60 g.a.i/ha post-emergent application measured after 15 days by greenhouse crop selectivity assay
Type: organism-based
condition_parameters: in vivo, other, 360 h
measurement_name: Activity

>  <compound>
CCOC(=O)C(C)N1C(=O)C(C)Oc2cc(F)c(N3C(=O)C4=C(CCCC4)C3=O)cc21 (centres undefined)

>  <value>
Toxic

$$$$
>  <compound>
CCOC(=O)C(CC)N1C(=O)C(C)Oc2cc(F)c(N3C(=O)C4=C(CCCC4)C3=O)cc21 (centres undefined)

>  <value>
Toxic

$$$$
>  <compound>
COC(=O)C(C)N1C(=O)C(C)Oc2cc(F)c(N3C(=O)C4=C(CCCC4)C3=O)cc21 (centres undefined)

>  <value>
Toxic

$$$$
>  <compound>
C#CCN1C(=O)COc2cc(F)c(N3C(=O)C4=C(CCCC4)C3=O)cc21

>  <value>
Toxic

$$$$

* * *

Test system: Oryza sativa
method_summary: Phytotoxicity against Oryza sativa (rice) assessed as growth inhibition at 7.5 to 60 g.a.i/ha post-emergent application measured after 15 days by greenhouse crop selectivity assay
Format: organism-based, L.
condition_parameters: in vivo, other, 360 h

>  <compound>
COC(=O)C(C)N1C(=O)C(C)Oc2cc(F)c(N3C(=O)C4=C(CCCC4)C3=O)cc21 (centres undefined)

>  <Activity>
Toxic

$$$$
>  <compound>
CCOC(=O)C(CC)N1C(=O)C(C)Oc2cc(F)c(N3C(=O)C4=C(CCCC4)C3=O)cc21 (centres undefined)

>  <Activity>
Toxic

$$$$
>  <compound>
C#CCN1C(=O)COc2cc(F)c(N3C(=O)C4=C(CCCC4)C3=O)cc21

>  <Activity>
Toxic

$$$$
>  <compound>
CCOC(=O)C(C)N1C(=O)C(C)Oc2cc(F)c(N3C(=O)C4=C(CCCC4)C3=O)cc21 (centres undefined)

>  <Activity>
Toxic

$$$$

* * *

Parameter: inhibition of growth at 15 g/ha. Scope: all listed entries.
Test system: Digitaria sanguinalis
method_summary: Pre-emergence herbicidal activity against Digitaria sanguinalis (hairy crabgrass) assessed as growth inhibition at 15 g.a.i./ha applied 24 hr after seeds were sown measured after 15 days
Type: functional
condition_parameters: read-out: GI
Just the number please, in %, no unit attached.

Ask | Lab note: Digitaria sanguinalis assay, enter inhibition of growth at 15 g/ha for CCOC(=O)C(CC)N1C(=O)C(C)Oc2cc(F)c(N3C(=O)C4=C(CCCC4)C3=O)cc21 (centres undefined) here
Reply | 0

Ask | Lab note: Digitaria sanguinalis assay, enter inhibition of growth at 15 g/ha for COC(=O)C(C)N1C(=O)C(C)Oc2cc(F)c(N3C(=O)C4=C(CCCC4)C3=O)cc21 (centres undefined) here
Reply | 10

Ask | Lab note: Digitaria sanguinalis assay, enter inhibition of growth at 15 g/ha for CCOC(=O)C(C)N1C(=O)C(C)Oc2cc(F)c(N3C(=O)C4=C(CCCC4)C3=O)cc21 (centres undefined) here
Reply | 40

Ask | Lab note: Digitaria sanguinalis assay, enter inhibition of growth at 15 g/ha for C#CCN1C(=O)COc2cc(F)c(N3C(=O)C4=C(CCCC4)C3=O)cc21 here
Reply | 50

* * *

Tested on: Gossypium
method_summary: Phytotoxicity against Gossypium (cotton) assessed as growth inhibition at 7.5 to 60 g.a.i/ha post-emergent application measured after 15 days by greenhouse crop selectivity assay
Format: organism-based
condition_parameters: in vivo, other, 360 h
measurement_name: Activity

>  <molecule>
C#CCN1C(=O)COc2cc(F)c(N3C(=O)C4=C(CCCC4)C3=O)cc21

>  <value>
Toxic

$$$$
>  <molecule>
CCOC(=O)C(CC)N1C(=O)C(C)Oc2cc(F)c(N3C(=O)C4=C(CCCC4)C3=O)cc21 (centres undefined)

>  <value>
Toxic

$$$$
>  <molecule>
COC(=O)C(C)N1C(=O)C(C)Oc2cc(F)c(N3C(=O)C4=C(CCCC4)C3=O)cc21 (centres undefined)

>  <value>
Toxic

$$$$
>  <molecule>
CCOC(=O)C(C)N1C(=O)C(C)Oc2cc(F)c(N3C(=O)C4=C(CCCC4)C3=O)cc21 (centres undefined)

>  <value>
Toxic

$$$$

* * *

method_summary: Phytotoxicity against Triticum aestivum (wheat) assessed as growth inhibition at 150 g.a.i/ha pre-emergent application measured after 15 days by greenhouse crop selectivity assay
Assay type: organism-based
condition_parameters: in vivo, 150 g.a.i/ha, read-out: GI
measurement_name: inhibition at 360 h

>  <compound>
COC(=O)C(C)N1C(=O)C(C)Oc2cc(F)c(N3C(=O)C4=C(CCCC4)C3=O)cc21 (stereo not drawn)

>  <inhibition at 360 h>
> 10%

$$$$
>  <compound>
CCOC(=O)C(C)N1C(=O)C(C)Oc2cc(F)c(N3C(=O)C4=C(CCCC4)C3=O)cc21 (stereo not drawn)

>  <inhibition at 360 h>
> 10%

$$$$

API: the following record is the query input.
Ask | Consider the compound C#CCN1C(=O)COc2cc(F)c(N3C(=O)C4=C(CCCC4)C3=O)cc21 and give its recorded inhibition at 360 h.
Reply | > 10%

* * *

method_summary: Phytotoxicity against Oryza sativa (rice) assessed as growth inhibition at 300 g.a.i/ha pre-emergent application measured after 15 days by greenhouse crop selectivity assay
Format: organism-based, L.
condition_parameters: in vivo, read-out: GI
measurement_name: inhibition at 360 h

Ask | Consider the compound CCOC(=O)C(C)N1C(=O)C(C)Oc2cc(F)c(N3C(=O)C4=C(CCCC4)C3=O)cc21 (centres undefined) and give its recorded inhibition at 360 h.
Reply | > 10%

Ask | Consider the compound CCOC(=O)C(CC)N1C(=O)C(C)Oc2cc(F)c(N3C(=O)C4=C(CCCC4)C3=O)cc21 (centres undefined) and give its recorded inhibition at 360 h.
Reply | > 10%

Ask | Consider the compound COC(=O)C(C)N1C(=O)C(C)Oc2cc(F)c(N3C(=O)C4=C(CCCC4)C3=O)cc21 (centres undefined) and give its recorded inhibition at 360 h.
Reply | > 10%

Ask | Consider the compound C#CCN1C(=O)COc2cc(F)c(N3C(=O)C4=C(CCCC4)C3=O)cc21 and give its recorded inhibition at 360 h.
Reply | > 10%

Where these numbers come from: ChEMBL document CHEMBL3045743
